- assay_text: AUC (0 to 24 hrs) in male Beagle dog at 1 mg/kg, iv administered as single dose by LC-MS/MS analysis
- Format: ADME, organism-based, Canis lupus familiaris
- stated_conditions: in vivo
attribute_measured: AUC(0-t) (ng·h/mL)

1. C=CC(=O)N1CCN(c2c(C#N)c(=O)n(-c3c(C)ccnc3C(C)C)c3nc(-c4c(F)c(F)c(F)c(N)c4Cl)c(Cl)cc23)CC1 (atropisomer M)
2. C=CC(=O)N1CCN(c2c(C#N)c(=O)n(-c3c(C)ccnc3C(C)C)c3nc(-c4c(N)c(F)c(F)c(F)c4F)c(Cl)cc23)CC1 (atropisomer M) [GLECIRASIB]
IN: Between the entries labelled 1 and 2 , which has a larger AUC(0-t) value on record? State your choice using its label.
OUT: 2
